# Test system: Candida albicans ATCC 10231(R) (strain A)
# test-protocol: MIC determination, in vitro antifungal assay (CLSI M27-A3)
# Assay type: cell-based
# experimental-parameters: MIC-0 (no visible growth), 48 h at 35° C.
result-type: MIC

Example cases with answers are listed next.
- molecule: "Fc1ccc(N/N=C/c2ccc(-c3cccc(/C=N/Nc4ccc(F)cc4)c3)cc2)cc1 [Compound 17a]"
  result: "1.59 to 3.9 µg/mL"
- molecule: "Fc1ccc(N/N=C/c2ccc(-c3ccc(/C=N/Nc4ccc(F)cc4)cc3)cc2)cc1 [Compound 17b]"
  result: "7.8 µg/mL"
- molecule: "COc1cccc(N/N=C(\\C)c2ccc(-c3ccc(/C(C)=N/Nc4cccc(OC)c4)cc3)cc2)c1 [Compound 11c]"
  result: "0.98 µg/mL"
- molecule: "COc1ccc(N/N=C/c2ccc(-c3cccc(/C=N/Nc4ccc(OC)cc4)c3)cc2)cc1 [Compound 15a]"
  result: "1.95 µg/mL"
- molecule: "Fc1cc(F)cc(N/N=C/c2ccc(-c3ccc(/C=N/Nc4cc(F)cc(F)c4)cc3)cc2)c1 [Compound 22b]"
  result: "15.6 µg/mL"

// next entry
Prompt line: I am curious: what MIC value has been reported for C/C(=N\Nc1ccc(F)cc1)c1ccc(-c2ccc(/C(C)=N/Nc3ccc(F)cc3)cc2)cc1 [Compound 17c] ?
Response line: 1.95 µg/mL
